The measurements presented in this section are drawn from patent US20190282704A1.

# target-under-test: wildtype feline IL-31 (Feline_IL31_wildtype) (feline)
# Sequence (chain, as listed by the source limits assumed, form in doubt): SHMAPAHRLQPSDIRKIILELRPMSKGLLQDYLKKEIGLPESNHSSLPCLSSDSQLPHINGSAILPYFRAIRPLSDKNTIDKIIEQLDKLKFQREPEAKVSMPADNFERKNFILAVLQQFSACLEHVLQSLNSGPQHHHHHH
# protocol-description: SPR (Biacore), immobilised IL-31, 1:1 fit
pKd: −log10 of the molar value.
pKd listing for selected binders.

binder	pKd
Feline 11E12 1.1 (antibody, V domains shown) VH: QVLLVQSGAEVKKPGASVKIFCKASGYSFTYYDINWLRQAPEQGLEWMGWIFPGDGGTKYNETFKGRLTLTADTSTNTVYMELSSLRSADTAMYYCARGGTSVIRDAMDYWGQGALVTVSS VL: EIQMTQSPSSLSASPGDRVTITCRASESVDNYGISFMHWYQQKPGKVPKLLIYRASNLESGVPSRFSGSGSGTDFTLTISSLEPEDAATYYCQQSNKDPLTFGQGT	7.65
Feline 15H05_VH3 mouse VL (antibody, V domains shown) VH: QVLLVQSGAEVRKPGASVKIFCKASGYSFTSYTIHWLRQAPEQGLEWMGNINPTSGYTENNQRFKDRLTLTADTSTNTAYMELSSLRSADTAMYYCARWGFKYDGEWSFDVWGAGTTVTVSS VL: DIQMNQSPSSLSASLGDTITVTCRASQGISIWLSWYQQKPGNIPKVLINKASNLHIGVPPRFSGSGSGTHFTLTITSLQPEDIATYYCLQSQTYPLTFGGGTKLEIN	9.75
Feline 15H05 1.1 L46V (antibody, V domains shown) VH: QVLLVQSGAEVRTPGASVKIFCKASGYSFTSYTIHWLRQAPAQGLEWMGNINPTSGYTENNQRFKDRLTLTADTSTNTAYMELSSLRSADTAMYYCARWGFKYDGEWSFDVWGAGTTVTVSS VL: EIQMTQSPSSLSASPGDRVTITCRASQGISIWLSWYQQKPGKVPKVLIYKASNLHIGVPSRFSGSGSGTDFTLTISSLEPEDAATYYCLQSQTYPLTFGGGTKLEIK	7.64
Feline 15H05 1.2 (antibody, V domains shown) VH: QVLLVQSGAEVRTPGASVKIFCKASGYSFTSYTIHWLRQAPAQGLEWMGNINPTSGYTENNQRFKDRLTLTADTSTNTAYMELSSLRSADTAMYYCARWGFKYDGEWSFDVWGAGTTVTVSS VL: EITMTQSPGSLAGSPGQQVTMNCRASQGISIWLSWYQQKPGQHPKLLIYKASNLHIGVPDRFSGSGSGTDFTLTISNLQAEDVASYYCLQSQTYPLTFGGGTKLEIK	6.98
Feline 15H05 VH2 mouse VL (antibody, V domains shown) VH: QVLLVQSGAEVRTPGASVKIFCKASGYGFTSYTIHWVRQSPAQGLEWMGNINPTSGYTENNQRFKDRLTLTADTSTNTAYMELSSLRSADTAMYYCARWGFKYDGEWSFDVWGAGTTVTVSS VL: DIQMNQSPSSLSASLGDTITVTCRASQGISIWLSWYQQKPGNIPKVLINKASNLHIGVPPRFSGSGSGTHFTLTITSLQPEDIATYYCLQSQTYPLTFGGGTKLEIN	8.79
